Molecular target: 11βHSD2 (Homo sapiens, UniProt P80365)
Construct: homogenates or intact cells
Sequence (P80365 1-405 V148L): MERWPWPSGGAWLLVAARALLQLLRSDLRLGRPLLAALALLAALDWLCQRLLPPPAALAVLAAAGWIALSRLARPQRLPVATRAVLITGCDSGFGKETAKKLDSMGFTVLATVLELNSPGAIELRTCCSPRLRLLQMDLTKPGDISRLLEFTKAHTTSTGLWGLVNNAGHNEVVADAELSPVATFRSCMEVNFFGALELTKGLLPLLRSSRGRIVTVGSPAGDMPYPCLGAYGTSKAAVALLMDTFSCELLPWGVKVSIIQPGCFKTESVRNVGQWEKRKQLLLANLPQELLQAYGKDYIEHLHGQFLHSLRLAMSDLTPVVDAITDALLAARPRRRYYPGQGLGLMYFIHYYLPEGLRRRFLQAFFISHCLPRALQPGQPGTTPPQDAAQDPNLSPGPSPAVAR
Assay: Directionality and end product inhibition in intact pHSD2 transfected CHOP cells
Assay type: cell-based
Settings: monolayer cultures, 1.5 hours at 37° C., 1-2 nM labelled substrate, TLC
Description: To determine directionality and extent of end production inhibition of the enzyme encoded by pHSD2, monolayer cultures of transfected CHOP cells were incubated for 1.5 hours at 37° C. with 1-2 nM labelled substrates plus 10 nM corresponding unlabelled 11-dehydro metabolite (FIG. 2b). The culture medium was then removed, extracted and assayed by TLC for the presence of the 11-dehydro metabolite. […]
measurementName: metabolite formation by intact transfected CHOP cells

compound: C[C@]12CCC(=O)C=C1CC[C@@H]1[C@@H]2[C@@H](O)C[C@@]2(C)[C@H]1CC[C@]2(O)C(=O)CO [cortisol]
reported: converted

compound: C[C@]12CC(=O)[C@H]3[C@@H](CCC4=CC(=O)CC[C@@]43C)[C@@H]1CC[C@@H]2C(=O)CO [11-dehydro corticosterone]
reported: no metabolite formed

compound: C[C@]12CCC(=O)C=C1CC[C@@H]1[C@@H]2C(=O)C[C@@]2(C)[C@H]1CC[C@]2(O)C(=O)CO [cortisone]
reported: no metabolite formed

compound: C[C@]12C[C@H](O)[C@H]3[C@@H](CCC4=CC(=O)CC[C@@]43C)[C@@H]1CC[C@@H]2C(=O)CO [corticosterone]
reported: converted

Entry source: patent US5965372A
